// reported IC50 per item
# MEASURED ON: GSK3α (GST-full length GSK3α) (Homo sapiens (Human))
# Sequence (P49840 whole entry): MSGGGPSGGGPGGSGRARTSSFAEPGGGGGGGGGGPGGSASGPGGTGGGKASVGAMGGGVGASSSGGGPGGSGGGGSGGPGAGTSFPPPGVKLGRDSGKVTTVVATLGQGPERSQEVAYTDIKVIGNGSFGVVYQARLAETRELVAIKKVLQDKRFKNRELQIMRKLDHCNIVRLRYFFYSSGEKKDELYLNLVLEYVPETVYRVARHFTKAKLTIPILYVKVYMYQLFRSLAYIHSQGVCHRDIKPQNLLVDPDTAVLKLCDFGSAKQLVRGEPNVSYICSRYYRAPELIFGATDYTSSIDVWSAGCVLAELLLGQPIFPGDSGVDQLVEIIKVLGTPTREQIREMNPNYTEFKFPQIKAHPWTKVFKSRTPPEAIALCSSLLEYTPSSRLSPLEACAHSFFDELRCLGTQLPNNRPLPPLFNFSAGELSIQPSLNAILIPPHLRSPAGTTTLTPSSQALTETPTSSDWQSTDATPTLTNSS
# ASSAY SUMMARY: GSK3α TR-FRET kinase assay
# Type: biochemical
# PROTOCOL CONDITIONS: 1 nM GSK3α, 4 μM ATP, 30 minute preincubation, Table 16; read-out: GSK3-A TR-FRET BIOCHEMICAL (TR-FRET)
# Experimental: TR-FRET Assay: The assay was performed in a white, 384 well, low volume, flat bottom plate (Grenier). After a 30 minute preincubation in assay buffer with the indicated concentration of compound, the kinase activity was initiated by the addition of the substrates. […] After 60 min at room temperature the plate was read on Envision plate reader using Ex: 340 nm, Em: 615 nm and […]. The normalized 665/615 Signal ratio versus log compound concentration was analyzed by XLFIT to yield IC50 values.

{"columns": ["COMPOUND", "MEASURED ON", "MEASURED VALUE"],
 "data": [
  ["CC[C@]1(c2cccc(-c3cc(C)ncc3C)c2)C2=C(CC(C)(C)CC2=O)Nc2n[nH]cc21 [Compound 943515]", "GSK3α (GST-full length GSK3α) (Homo sapiens (Human))", "1 to 5 µM"],
  ["CC[C@]1(c2cccc(-c3ccncc3C)c2)C2=C(CC(C)(C)CC2=O)Nc2n[nH]c(C(F)(F)F)c21 [Compound 947324]", "GSK3α (GST-full length GSK3α) (Homo sapiens (Human))", "≤ 0.1 µM"],
  ["CCC1(c2cccc(-c3cn(C)nc3C)c2)C2=C(Nc3n[nH]cc31)C(F)C(C)(C)CC2=O (single isomer, unassigned) [Compound 947652]", "GSK3α (GST-full length GSK3α) (Homo sapiens (Human))", "≤ 0.1 µM"],
  ["CC1(C)CC(=O)C2=C(C1)Nc1n[nH]cc1C21CCN(S(=O)(=O)c2cccc3ccncc23)CC1 [Compound 947901]", "GSK3α (GST-full length GSK3α) (Homo sapiens (Human))", "≤ 0.1 µM"],
  ["CC1(C)CC2=C(C(=O)[C@H]1F)C1(CCOCC1)c1c[nH]nc1N2 [Compound 883836]", "GSK3α (GST-full length GSK3α) (Homo sapiens (Human))", "0.1 to 1 µM"],
  ["Cn1nccc1-c1cccc2c1CCC[C@@]21C2=C(CC(C)(C)CC2=O)Nc2n[nH]cc21 [Compound 945552]", "GSK3α (GST-full length GSK3α) (Homo sapiens (Human))", "0.1 to 1 µM"]
]}

Now consider a different compound.
Consider the compound CC1(C)CC(=O)C2=C(C1)Nc1n[nH]cc1C21CCN(S(=O)(=O)c2ccc(Cl)cc2)CC1 [Compound 945661] and give its measured IC50. ≤ 0.1 µM

* * *

# MEASURED ON: GSK3b (GST-full length GSK3b) (Homo sapiens (Human), UniProt P49841)
# Sequence (P49841 whole entry): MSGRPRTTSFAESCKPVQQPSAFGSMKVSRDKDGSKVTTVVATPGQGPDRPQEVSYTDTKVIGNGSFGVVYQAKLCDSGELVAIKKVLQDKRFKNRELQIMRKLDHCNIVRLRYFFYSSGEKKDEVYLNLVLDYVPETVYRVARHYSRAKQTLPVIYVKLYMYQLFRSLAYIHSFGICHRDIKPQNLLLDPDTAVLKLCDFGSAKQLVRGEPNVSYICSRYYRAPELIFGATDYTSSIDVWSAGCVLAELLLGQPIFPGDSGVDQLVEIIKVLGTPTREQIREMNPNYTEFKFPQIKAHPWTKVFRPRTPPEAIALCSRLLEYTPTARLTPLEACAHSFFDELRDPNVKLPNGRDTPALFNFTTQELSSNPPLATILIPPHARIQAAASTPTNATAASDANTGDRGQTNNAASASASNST
# ASSAY SUMMARY: GSK3b TR-FRET kinase assay
# Format: biochemical
# PROTOCOL CONDITIONS: 1 nM GSK3b, 2 μM ATP, 30 minute preincubation, Table 16; read-out: GSK3-B TR-FRET BIOCHEMICAL (TR-FRET)
pIC50: −log10 of the molar value.
// reported pIC50 per item

// below: answered compounds
{"columns": ["COMPOUND STRUCTURE STRING", "RECORDED METRIC", "MEASURED VALUE"],
 "data": [
  ["CC1(C)CC(=O)C2=C(C1)Nc1n[nH]cc1C21CCN(S(=O)(=O)c2ccccc2C(F)F)CC1", "pIC50", "6.00 to 7.00"],
  ["C[C@@H]1C[C@@]2(CCN1S(C)(=O)=O)C1=C(CC(C)(C)CC1=O)Nc1n[nH]cc12", "pIC50", "6.00 to 7.00"],
  ["Cc1c(S(=O)(=O)N2CCC3(CC2)C2=C(CC(C)(C)CC2=O)Nc2n[nH]cc23)cnn1C", "pIC50", "≥ 7.00"],
  ["CC1(C)CC(=O)C2=C(C1)Nc1n[nH]cc1[C@]21CCO[C@@H](C(F)(F)F)C1", "pIC50", "6.00 to 7.00"]
]}

Now consider a different compound.
Consider the compound "CC[C@@]1(c2cccc(C(F)(F)F)c2)C2=C(C[C@@]3(CCNC3=O)CC2=O)Nc2n[nH]cc21" and give its measured pIC50. 6.00 to 7.00

* * *

# MEASURED ON: GSK3α (GST-full length GSK3α) (Homo sapiens (Human))
# ASSAY SUMMARY: GSK3α TR-FRET kinase assay
# Type: biochemical
# PROTOCOL CONDITIONS: read-out: GSK3-A (TR-FRET 1 mM ATP); GMean; IC50; 1 mM ATP; geometric mean
pIC50: −log10 of the molar value.
RECORDED METRIC: pIC50

Provide value of pIC50 for this record tested with GSK3α (GST-full length GSK3α) (Homo sapiens (Human)): CC(=O)N1CC2(C1)CC1(CO2)C2=C(CC(C)(C)CC2=O)Nc2n[nH]cc21 (stereo not shown) [Compound 913058] ≥ 7.00

Provide value of pIC50 for this record tested with GSK3α (GST-full length GSK3α) (Homo sapiens (Human)): CC[C@]1(c2cccc(-c3ccncc3C)c2)C2=C(CC3(CCC3)NC2=O)Nc2n[nH]cc21 [Compound 948512] 6.00 to 7.00

Provide value of pIC50 for this record tested with GSK3α (GST-full length GSK3α) (Homo sapiens (Human)): CC(C)(C)Cc1[nH]nc2c1[C@@](C)(c1cccc(S(=O)(=O)C(F)(F)F)c1)C1=C(CC(C)(C)CC1=O)N2 [Compound 126396] < 5.30

Provide value of pIC50 for this record tested with GSK3α (GST-full length GSK3α) (Homo sapiens (Human)): CCC1(c2cccc(-c3c(F)cncc3OC)c2)C2=C(Nc3n[nH]cc31)C(F)C(C)(C)CC2=O (stereo not shown) [Compound 948546] ≥ 7.00

* * *

# MEASURED ON: GSK3b (GST-full length GSK3b) (Homo sapiens (Human), UniProt P49841)
# ASSAY SUMMARY: GSK3b TR-FRET kinase assay
# Type: biochemical
# PROTOCOL CONDITIONS: 1 nM GSK3b, 2 μM ATP, 30 minute preincubation, Table 16; read-out: GSK3-B TR-FRET BIOCHEMICAL (TR-FRET)
pIC50: −log10 of the molar value.
RECORDED METRIC: pIC50

// below: answered compounds
{"columns": ["COMPOUND STRUCTURE STRING", "MEASURED VALUE"],
 "data": [
  ["CC1(C)CC(=O)C2=C(C1)Nc1n[nH]cc1C21CCN(S(=O)(=O)c2cnc3ccccn23)CC1", "≥ 7.00"],
  ["CN1CC2(C1)C1=C(CC(C)(C)CC1=O)Nc1n[nH]cc12", "≥ 7.00"]
]}

Consider the compound "CC1(C)CC(=O)C2=C(C1)Nc1n[nH]cc1C21CCC(F)(F)CC1" and give its measured pIC50. 6.00 to 7.00

* * *

# MEASURED ON: UniProtKB P49840
# ASSAY SUMMARY: GSK3α TR-FRET kinase assay
# Format: biochemical
# PROTOCOL CONDITIONS: 1 nM GSK3α, 4 μM ATP, 30 minute preincubation; geometric mean; read-out: GSK3-A TR-FRET BIOCHEMICAL (TR-FRET); GMean; IC50
RECORDED METRIC: IC50

// below: answered compounds
{"columns": ["COMPOUND", "RECORDED METRIC", "MEASURED VALUE"],
 "data": [
  ["CCC1(c2cccc(-c3cnn(CCOC)c3)c2)C2=C(CC(C)(C)NC2=O)Nc2n[nH]cc21 (stereo not drawn)", "IC50", "1000 to 5000 nM"],
  ["CCC1(c2cccc(OC)c2)C2=C(CC(C)(C)NC2=O)Nc2n[nH]c(C)c21 (stereo not drawn)", "IC50", "≤ 100 nM"],
  ["CCC1(c2cccc(-c3ccnc4cc(OC)ccc34)c2)C2=C(CC(C)(C)NC2=O)Nc2n[nH]cc21 (stereo not drawn) [Compound 948661]", "IC50", "≤ 100 nM"]
]}

Consider the compound "CC[C@@]1(c2cccc(N(C)c3ccccn3)c2)C2=C(CC(C)(C)CC2=O)Nc2n[nH]cc21" and give its measured IC50. 1000 to 5000 nM

Consider the compound CCC1(c2cccc(-c3cncn3C)c2)C2=C(CC(C)(C)NC2=O)Nc2n[nH]c(C(F)(F)F)c21 (stereo not drawn) [Compound 948180] and give its measured IC50. ≤ 100 nM

Consider the compound "CC[C@@]1(c2cccc(-c3ccnc(C)c3)c2)C2=C(C[C@@]3(CCCOC3)NC2=O)Nc2n[nH]cc21" and give its measured IC50. 1000 to 5000 nM

Ref: patent US20250313563A1
